Where these numbers come from: patent US20030049287A1

# Lookup of reported melting point keyed by entry

I am curious: what melting point value has been reported for ON=Cc1cc(O)c(O)c(O)c1 [Example 9, 3,4,5-Trihydroxybenzaldehyde oxime] ? 177 °C (dec.)

I am curious: what melting point value has been reported for Cc1ccc(CON=Cc2ccc(O)c(O)c2)cc1 ? 85 to 86 °C

I am curious: what melting point value has been reported for ON=Cc1ccc(O)c(O)c1 [Example 7, 3,4-Dihydroxybenzaldehyde oxime] ? 143 °C (dec.)

I am curious: what melting point value has been reported for CCON=Cc1cc(O)c(O)c(O)c1 ? 80 °C

I am curious: what melting point value has been reported for CCON=Cc1ccc(O)c(O)c1 [Example 10, 3,4-Dihydroxybenzaldehyde O-ethyloxime] ? < 23 °C
